The measured values listed here are drawn from the RNAGym collection of RNA variant scans (doi:10.1093/molbev/msab373).

B1: Azoarcus group I ribozyme (parent)
chain: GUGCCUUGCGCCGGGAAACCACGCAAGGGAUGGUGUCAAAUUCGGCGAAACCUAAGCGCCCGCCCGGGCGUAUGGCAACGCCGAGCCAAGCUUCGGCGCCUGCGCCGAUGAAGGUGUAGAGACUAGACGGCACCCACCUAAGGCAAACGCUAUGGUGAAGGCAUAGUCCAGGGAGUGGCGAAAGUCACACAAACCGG

Variants of: B1
MEASUREMENT_NOTES: reverse-splicing fitness (ratio to wild type); higher = more active; in vitro selection; Mg2+ level not given
Returns satisfied if the recorded reverse-splicing fitness is greater than or equal to 0.007, and not satisfied otherwise.

Past entries and their recorded results:
VARIANT_ANNOTATION	CATEGORY_LABEL
C82U A111G A120C A145C C150U C169A U176A	satisfied
C82A A111C A145U C150A U176G	satisfied
C82A A111G A120G C169U	satisfied
C82G A111U A120G A145G C169G	satisfied
C82G A111U A145G C169A U176A	satisfied
A111C A145G C150A U176C	satisfied
C82U A120U A145G C150A C169U U176G	not satisfied
A111G A120G A145U C150U C169A U176G	not satisfied

Input: Reported reverse-splicing fitness at or above 0.007? C82A A111U A120U A145U C150U C169U U176A
Output: not satisfied

Input: Quick check, reverse-splicing fitness >= 0.007? C82A A111G A120U A145U C150G C169A U176A
Output: not satisfied

Input: Does the variant C82G A111C A120G A145U C150A C169G U176C have recorded reverse-splicing fitness that is 0.007 or more?
Output: satisfied

Input: Hi team, for A111U A120G C169U U176A , is the recorded reverse-splicing fitness at or above 0.007?
Output: satisfied

Input: Does C82U A111U A120C A145C C169U U176C have a reported reverse-splicing fitness of at least 0.007?
Output: satisfied

Input: Record C82U A120C A145C C150U C169U U176C ; criterion: reverse-splicing fitness no lower than 0.007. Met?
Output: satisfied

Input: Determine whether measured reverse-splicing fitness meets or exceeds 0.007 for C82U A111G A145C C169G U176A
Output: satisfied

Input: Determine whether this variant has reverse-splicing fitness no lower than 0.007: A111C A120C A145G C169G U176A
Output: satisfied

Input: Tell me whether reverse-splicing fitness is at least 0.007 here: C82G A111G A120G A145G C169G U176C
Output: satisfied

Input: Threshold query (reverse-splicing fitness >= 0.007) on C82A A111U A120C A145U C169U
Output: satisfied

Input: Form field: reverse-splicing fitness at least 0.007? Entry: C82A A111G A120C A145U C150A U176G
Output: satisfied

Input: Decide: reverse-splicing fitness of C82G A120C A145G C150U >= 0.007?
Output: satisfied

Input: Is reverse-splicing fitness at least 0.007? Consider C82G A111C A120U A145G C150U C169U U176A
Output: not satisfied

Input: Exam item: decide whether the reported reverse-splicing fitness for C82G A120C A145G C150G U176C is at least 0.007.
Output: satisfied

Input: Reported reverse-splicing fitness at or above 0.007? C82U A111U A120C A145C C150U U176C
Output: satisfied

Input: Confirm if reverse-splicing fitness reported for the variant C82A A111G A120C A145G C150G C169U U176A is 0.007 or above.
Output: satisfied
